# PROCEDURE TEXT: LD50's in mice
# CONDITION CONTEXT: mouse, in vivo, ip; i.p. administration to mice
Measured LD50 accompanies every entry in the list below.
The answer is to be given in mg/kg; state only the numeric part.

> print(dat)
                                   compound  reported.metric  recorded.result
1  CCCCCCCCN1CCC(=O)N1.Cl [n-octyl, 1-(n-octyl)-3-pyrazolidone hydrochloride]             LD50              250
2                 CCCCCCCCCCCN1CCC(=O)N1.Cl             LD50              350
3              CCCCCCCCCCCCCCN1CCC(=O)N1.Cl             LD50              350
4  CCCCCCCCCN1CCC(=O)N1.Cl [n-nonyl, 1-(n-nonyl)-3-pyrazolidone hydrochloride]             LD50              210

Returns the measured LD50 for the input compound. Input: CCCCCCCCCCN1CCC(=O)N1.Cl [n-decyl, 1-(n-decyl)-3-pyrazolidone hydrochloride]
500
